Reported half-life values follow for various compounds
- assay.info: Liver microsome stability
- condition.description: mouse, liver microsomes, t1/2 in mouse liver microsomes, mouse liver microsomes
Numeric answer only, unit min assumed.

Past entries and their recorded results:
COc1cc2c(c(OC)c1OC)C(c1cc(Cl)ccc1F)CC(=O)N2 (stereo not drawn) [LDN-212351] : 45
O=C(Nc1ncc(C2(O)CCC2)s1)c1ccc(F)c(Cl)c1 [LDN-212014] : 39

Okay, now this compound:
// half-life lookup, key: CC(C)c1cc(C(=O)Nc2ccc(F)c(Cl)c2)no1 [LDN-75654] 14
